Data origin, for the record: patent US10344054B2

Molecular target: hAT1R (Homo sapiens, UniProt P30556)
Sequence (P30556 1-359): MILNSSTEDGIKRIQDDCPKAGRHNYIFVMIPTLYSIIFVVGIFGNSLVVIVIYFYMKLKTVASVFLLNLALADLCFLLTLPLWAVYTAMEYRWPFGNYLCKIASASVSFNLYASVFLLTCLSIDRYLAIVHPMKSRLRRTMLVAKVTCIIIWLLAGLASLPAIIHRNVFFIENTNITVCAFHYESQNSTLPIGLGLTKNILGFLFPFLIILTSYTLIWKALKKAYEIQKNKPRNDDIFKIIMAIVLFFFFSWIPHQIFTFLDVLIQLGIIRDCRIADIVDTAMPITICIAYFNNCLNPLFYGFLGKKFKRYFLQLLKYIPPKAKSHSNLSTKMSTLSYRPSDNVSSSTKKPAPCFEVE
Assay: FLIPR calcium flux assay, Part I: agonist activity
Type: cell-based
Conditions: ChanTest hAT1R stable cells; % MPE, percent of the maximal possible effect; read-out: hAT1R Agonist Efficacy Agonist (%) Ave
Residues, ends and D or L forms follow the SMILES beside them.
property_measured: Emax
Please answer using a numeric value trailed by its unit.

Consider the molecule CNCC(=O)N[C@@H](CCCNC(=N)N)C(=O)N[C@H](C(=O)N[C@@H](Cc1ccc(O)cc1)C(=O)N[C@@H](CC1CCCCC1)C(=O)N[C@@H](Cc1c[nH]cn1)C(=O)N1CCC[C@H]1C(=O)N[C@H](Cc1cccc2ccccc12)C(=O)O)C(C)C [Compound 14, Sar-Arg-Val-Tyr-Cha-His-Pro-(D-1Nal)-OH] (HELM PEPTIDE1{[Sar].R.V.Y.[Cha].H.P.[O=C(O)[C@@H](Cc1cccc2ccccc12)N[*:1]]}$$$$V2.0) and give its measured Emax.
5%

And then CNCC(=O)N[C@@H](CCCNC(=N)N)C(=O)N[C@H](C(=O)N[C@@H](Cc1ccc(O)c(Cl)c1)C(=O)N[C@H](C(=O)N[C@@H](Cc1c[nH]cn1)C(=O)N1CCC[C@H]1C(=O)N[C@H](Cc1ccccc1Cl)C(=O)O)C(C)C)C(C)C [Compound 28] (HELM PEPTIDE1{[Sar].R.V.[O=C([C@H](Cc1ccc(O)c(Cl)c1)N[*:1])[*:2]].V.H.P.[O=C(O)[C@@H](Cc1ccccc1Cl)N[*:1]]}$$$$V2.0) , what is it?
5%

* * *

Biological target: hAT1R (Homo sapiens, UniProt P30556)
Experiment: FLIPR calcium flux assay, Part II: antagonist activity against Angiotensin II; further: Angiotensin II 10 nM final concentration
Format: cell-based
Conditions: read-out: hAT1R Antagonist Efficacy Antag (%) Ave
Experimental: AT1 receptor (AT1R) agonists increase intracellular flux of calcium ions. AT1R antagonists can reduce the agonist effect. […] Intracellular flux of calcium in response to agonist was measured through real-time measurement of fluorescence induced through the interaction of Ca2+ (released from intracellular stores) and calcium-sensitive dye. In Part I, cells were exposed to varying concentrations of test compounds and immediately measured for agonist activity (EC50 and Efficacy). […]
Residues, ends and D or L forms follow the SMILES beside them.
property_measured: Emax (%)
Please respond with the number in % and leave the unit unwritten.

Consider the compound CC(C)[C@H](NC(=O)[C@H](CCCNC(=N)N)NC(=O)CNC[C@H](O)[C@@H](O)[C@H](O)[C@H](O)CO)C(=O)N[C@@H](Cc1ccc(O)cc1)C(=O)N[C@H](C(=O)N[C@@H](Cc1c[nH]cn1)C(=O)N1CCC[C@H]1C(=O)N[C@H](Cc1ccccc1-c1ccccc1)C(=O)O)C(C)C [Compound 39] (HELM PEPTIDE1{[O=C(CNC[C@H](O)[C@@H](O)[C@H](O)[C@H](O)CO)[*:2]].R.V.Y.V.H.P.[O=C(O)[C@@H](Cc1ccccc1-c1ccccc1)N[*:1]]}$$$$V2.0) and give its measured Emax.
101

And then CNCC(=O)N[C@@H](CCCNC(=N)N)C(=O)N[C@H](C(=O)N[C@@H](Cc1ccc(O)cc1)C(=O)N[C@@H](CC1CCCCC1)C(=O)N[C@@H](Cc1c[nH]cn1)C(=O)N1CCC[C@H]1C(=O)N[C@H](Cc1cccc2ccccc12)C(=O)O)C(C)C [Compound 14, Sar-Arg-Val-Tyr-Cha-His-Pro-(D-1Nal)-OH] (HELM PEPTIDE1{[Sar].R.V.Y.[Cha].H.P.[O=C(O)[C@@H](Cc1cccc2ccccc12)N[*:1]]}$$$$V2.0) , what is it?
100

And then CNCC(=O)N[C@@H](CCCNC(=N)N)C(=O)N[C@H](C(=O)N[C@@H](Cc1ccc(O)cc1)C(=O)N[C@H](C(=O)N[C@@H](Cc1c[nH]cn1)C(=O)N1CCC[C@H]1C(=O)N[C@H](Cc1ccccc1Br)C(=O)O)C(C)C)C(C)C [Compound 11] (HELM PEPTIDE1{[Sar].R.V.Y.V.H.P.[O=C(O)[C@@H](Cc1ccccc1Br)N[*:1]]}$$$$V2.0) , what is it?
99

And then CNCC(=O)N[C@@H](CCCNC(=N)N)C(=O)N[C@H](C(=O)N[C@@H](Cc1ccc(O)cc1)C(=O)N[C@@H](Cc1ccc(N)cc1)C(=O)N[C@@H](Cc1c[nH]cn1)C(=O)N1CCC[C@H]1C(=O)N[C@H](Cc1ccccc1Cl)C(=O)O)C(C)C [Compound 20] (HELM PEPTIDE1{[Sar].R.V.Y.[Nc1ccc(C[C@H](N[*:1])C(=O)[*:2])cc1].H.P.[O=C(O)[C@@H](Cc1ccccc1Cl)N[*:1]]}$$$$V2.0) , what is it?
99

And then CNCC(=O)N[C@@H](CCCNC(=N)N)C(=O)N[C@H](C(=O)N[C@@H](Cc1ccc(O)c(Cl)c1)C(=O)N[C@H](C(=O)N[C@@H](Cc1c[nH]cn1)C(=O)N1CCC[C@H]1C(=O)N[C@H](Cc1ccccc1Cl)C(=O)O)C(C)C)C(C)C [Compound 28] (HELM PEPTIDE1{[Sar].R.V.[O=C([C@H](Cc1ccc(O)c(Cl)c1)N[*:1])[*:2]].V.H.P.[O=C(O)[C@@H](Cc1ccccc1Cl)N[*:1]]}$$$$V2.0) , what is it?
99

And then CC[C@H](C)[C@H](NC(=O)[C@H](Cc1ccc(O)cc1)NC(=O)[C@@H](NC(=O)[C@H](CCCNC(=N)N)NC(=O)CNC)C(C)C)C(=O)N[C@@H](Cc1c[nH]cn1)C(=O)N1CCC[C@H]1C(=O)N[C@H](Cc1ccccc1)C(=O)O [Ref. Cpd. 2, Sar-Arg-Val-Tyr-Ile-His-Pro-D-Phe-OH, reference compound] , what is it?
99

And then CC(C)[C@H](NC(=O)[C@H](CCCNC(=N)N)NC(=O)CNC[C@H](O)[C@@H](O)[C@H](O)[C@H](O)CO)C(=O)N[C@@H](Cc1ccc(O)cc1)C(=O)N[C@H](C(=O)N[C@@H](Cc1c[nH]cn1)C(=O)N1CCC[C@H]1C(=O)N[C@H](Cc1ccccc1Cl)C(=O)O)C(C)C [Compound 29] (HELM PEPTIDE1{[O=C(CNC[C@H](O)[C@@H](O)[C@H](O)[C@H](O)CO)[*:2]].R.V.Y.V.H.P.[O=C(O)[C@@H](Cc1ccccc1Cl)N[*:1]]}$$$$V2.0) , what is it?
99

And then CCCCC(=O)N(Cc1ccc(-c2ccccc2-c2nnn[nH]2)cc1)[C@H](C(=O)O)C(C)C [Ref. Cpd. 4, Valsartan, reference compound] , what is it?
100

And then CNCC(=O)N[C@@H](CCCNC(=N)N)C(=O)N[C@H](C(=O)N[C@@H](Cc1ccc(O)cc1)C(=O)N[C@@H](Cc1ccsc1)C(=O)N[C@@H](Cc1c[nH]cn1)C(=O)N1CCC[C@H]1C(=O)N[C@H](Cc1ccccc1Cl)C(=O)O)C(C)C [Compound 22] (HELM PEPTIDE1{[Sar].R.V.Y.[O=C([C@H](Cc1ccsc1)N[*:1])[*:2]].H.P.[O=C(O)[C@@H](Cc1ccccc1Cl)N[*:1]]}$$$$V2.0) , what is it?
99

And then Cc1ccccc1C[C@@H](NC(=O)[C@@H]1CCCN1C(=O)[C@H](Cc1c[nH]cn1)NC(=O)[C@@H](NC(=O)[C@H](Cc1ccc(O)cc1)NC(=O)[C@@H](NC(=O)[C@H](CCCNC(=N)N)NC(=O)CNC[C@H](O)[C@@H](O)[C@H](O)[C@H](O)CO)C(C)C)C(C)C)C(=O)O [Compound 45] (HELM PEPTIDE1{[O=C(CNC[C@H](O)[C@@H](O)[C@H](O)[C@H](O)CO)[*:2]].R.V.Y.V.H.P.[Cc1ccccc1C[C@@H](N[*:1])C(=O)O]}$$$$V2.0) , what is it?
101
